For each of the molecules below, state its pIC50.
Tested on: HCT116 Parental
ASSAY INFO: Single agent proliferation assay (CellTiter-Glo, 72 h)
Type: cell-based
EXPERIMENTAL CONTEXT: Homo sapiens, HCT-116
Give bare numbers, as −log10 of the molar value.

CC(=O)Nc1cccc(-n2c(=O)n(C3CC3)c(=O)c3c(Nc4ccc(I)cc4F)n(C)c(=O)c(C)c32)c1 :: 8.15
Cn1cnc2c(F)c(Nc3ccc(Br)cc3F)c(C(=O)NOCCO)cc21 :: 6.94
CC(C)Nc1cc(-c2c[nH]c(C(=O)N[C@H](CO)c3cccc(Cl)c3)c2)c(Cl)cn1 :: 6.59
O=C(c1ccc(F)c(F)c1Nc1ccc(I)cc1F)N1CC(O)([C@@H]2CCCCN2)C1 :: 7.05
O=C(NOCCO)c1ccc2cncn2c1Nc1ccc(I)cc1F :: 7.51

Now take the following molecule into account.
What value of pIC50 has been reported for the following molecule? `O=C(Nc1ccc2[nH]nc(-c3ccncc3)c2c1)[C@@H]1CCN(CC(=O)N2CCN(c3ccc(-c4ncccn4)cc3)CC2)C1`
6.94
